Provenance of the data: the RNAGym collection of RNA variant scans (doi:10.1073/pnas.2313332121)

B1: TPR 5TU (parent)
chain: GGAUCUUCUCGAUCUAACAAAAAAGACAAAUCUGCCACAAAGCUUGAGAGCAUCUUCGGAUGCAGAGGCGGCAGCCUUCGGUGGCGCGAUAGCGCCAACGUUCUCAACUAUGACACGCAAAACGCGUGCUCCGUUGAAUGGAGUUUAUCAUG

variants of: B1; experiment: polymerase ribozyme fitness, log enrichment relative to wild type (log ratio); higher = more active; in vitro selection for triplet polymerase activity
Variants at the floor of the assay were thinned out.
Parameter: polymerase ribozyme fitness (log ratio). Scope: all listed entries.
REPORTED ENDPOINT: polymerase ribozyme fitness (log ratio)

> print(dat)
                               alteration                        reported.endpoint  reported.relation  numeric.readout
 1                              A12G A30G  polymerase ribozyme fitness (log ratio)                  =            -2.97
 2                              A40U C87U  polymerase ribozyme fitness (log ratio)                  =           -0.375
 3                        G83U G92C U111A  polymerase ribozyme fitness (log ratio)                  ≤             -4.2
 4                  C38A U55A U135A U146C  polymerase ribozyme fitness (log ratio)                  =            -1.06
 5    C10U A23G G50U U53A G71C C87A A120U  polymerase ribozyme fitness (log ratio)                  ≤             -4.2
 6        U13C C14U U77G G84U U145G U148A  polymerase ribozyme fitness (log ratio)                  ≤             -4.2
 7                        G70A C87U A106G  polymerase ribozyme fitness (log ratio)                  =            -2.89
 8                 G59C A120U A122C A147G  polymerase ribozyme fitness (log ratio)                  =            -1.22
 9  C51U A60U G84A A98G A121C G143U A147C  polymerase ribozyme fitness (log ratio)                  ≤             -4.2
10              A22U G86A C93G C99A A138C  polymerase ribozyme fitness (log ratio)                  ≤             -4.2
11                    A37U C75U G83A A98U  polymerase ribozyme fitness (log ratio)                  =            -2.88
